These data points were gathered from ChEMBL document CHEMBL5346964.

Entries and their measured Tmax follow.
experimental.protocol: Tmax in Sprague-Dawley rat at 10 mg/kg, po measured upto 24 hrs by LC-MS/MS analysis
Assay type: ADME, organism-based
measurement.context: in vivo
property.measured: Tmax (min)

{"compound": "C[C@@H](NCCCc1cccc(C(F)(F)F)c1)c1cccc2ccccc12 [CINACALCET]", "property.measured": "Tmax", "units.symbol": "min", "endpoint.result": 30}
{"compound": "Cc1ccc(N2CC(CN[C@H](C)c3cccc4ccccc34)Oc3ccccc32)cc1C(=O)O.Cl (some centres not stated)", "property.measured": "Tmax", "units.symbol": "min", "endpoint.result": 3}

---

experimental.protocol: AUC in BALB/c mouse at 10 mg/kg, po measured upto 24 hrs by LC/MS-MS analysis
Assay type: ADME, organism-based
Design: time < 24 hrs, dose 10 mg/kg, route po
measurement.context: in vivo
property.measured: AUC at 24 h (µM·h)

{"line.notation": "Cc1ccc([C@@H]2C[C@H](CN[C@H](C)c3cccc4ccccc34)Oc3ccccc32)cc1C(=O)O.Cl", "endpoint.result": 171}

---

experimental.protocol: AUClast in Sprague-Dawley rat at 10 mg/kg, po administered as suspension measured upto 24 hrs by LC-MS/MS analysis
Type: ADME, organism-based
Set-up: dose 10 mg/kg, time < 24 hrs, route po
measurement.context: in vivo

{"line.notation": "Cc1ccc([C@@H]2C[C@H](CN[C@H](C)c3cccc4ccccc34)Oc3ccccc32)cc1C(=O)O.Cl", "AUC(0-t) at 24 h": "23 µM·h"}

---

experimental.protocol: Kinetic solubility of compound upto 500 uM in 0.1N NaOH measured after 16 hrs under shaking condition by UV-visible method
Assay type: physicochemical
measurement.context: read-out: Kinetic_solubility

{"line.notation": "Cc1ccc([C@@H]2C[C@H](CN[C@H](C)c3cccc4ccccc34)Oc3ccccc32)cc1C(=O)O.Cl", "solubility kinetic at 16 h, 500 µM": "> 300 µM"}

---

experimental.protocol: Microsomal stability in human liver microsomes assessed as parent compound remaining at 1 uM measured upto 30 mins in presence of NADPH by LC-MS/MS analysis
Assay type: ADME, Microsome
measurement.context: liver microsomes, read-out: Stability

{"compound": "COc1ccc([C@@H]2C[C@H](CN[C@H](C)c3cccc4ccccc34)Oc3ccccc32)cc1C(=O)O", "remaining at 0.5 h, 1 µM, %": 77}
{"compound": "C[C@@H](NCC1CN(c2cccc(C(=O)O)c2)c2ccccc2O1)c1cccc2ccccc12 (mixture of isomers; form 1)", "remaining at 0.5 h, 1 µM, %": 49}
{"compound": "C[C@@H](NC[C@H]1C[C@H](c2cccc(C(=O)O)c2)c2ccccc2O1)c1cccc2ccccc12", "remaining at 0.5 h, 1 µM, %": 57}
{"compound": "Cc1ccc([C@@H]2C[C@H](CN[C@H](C)c3cccc4ccccc34)Oc3ccccc32)cc1C(=O)O.Cl", "remaining at 0.5 h, 1 µM, %": 73}
{"compound": "C[C@@H](NCC1CN(c2ccc(C(=O)O)cc2)c2ccccc2O1)c1cccc2ccccc12 (stereo partly specified)", "remaining at 0.5 h, 1 µM, %": 34}
{"compound": "Cc1ccc([C@@H]2C[C@@H](CN[C@H](C)c3cccc4ccccc34)Oc3ccccc32)cc1C(=O)O", "remaining at 0.5 h, 1 µM, %": 74}

---

experimental.protocol: AUClast in Sprague-Dawley rat at 1 mg/kg, po measured upto 24 hrs by LC-MS/MS analysis
Format: ADME, organism-based
Set-up: dose 1 mg/kg, time < 24 hrs, route po
measurement.context: in vivo

{"compound": "C[C@@H](N[C@H]1CCN(c2ccc(CC(=O)O)cc2)C1)c1cccc2ccccc12 [EVOCALCET]", "units.symbol": "µM·h", "AUC(0-t) at 24 h": 23}

---

experimental.protocol: Protein binding in mouse plasma incubated for 16 hrs under shaking condition by rapid equilibrium dialysis based LC-MS/MS method
Assay type: ADME, cell-free
measurement.context: read-out: PPB
property.measured: fraction unbound at 16 h

{"line.notation": "Cc1ccc([C@@H]2C[C@H](CN[C@H](C)c3cccc4ccccc34)Oc3ccccc32)cc1C(=O)O.Cl", "endpoint.result": "< 0.01"}

---

assayed.system: CYP3A4 (Homo sapiens, UniProt P08684)
Sequence (P08684 whole entry): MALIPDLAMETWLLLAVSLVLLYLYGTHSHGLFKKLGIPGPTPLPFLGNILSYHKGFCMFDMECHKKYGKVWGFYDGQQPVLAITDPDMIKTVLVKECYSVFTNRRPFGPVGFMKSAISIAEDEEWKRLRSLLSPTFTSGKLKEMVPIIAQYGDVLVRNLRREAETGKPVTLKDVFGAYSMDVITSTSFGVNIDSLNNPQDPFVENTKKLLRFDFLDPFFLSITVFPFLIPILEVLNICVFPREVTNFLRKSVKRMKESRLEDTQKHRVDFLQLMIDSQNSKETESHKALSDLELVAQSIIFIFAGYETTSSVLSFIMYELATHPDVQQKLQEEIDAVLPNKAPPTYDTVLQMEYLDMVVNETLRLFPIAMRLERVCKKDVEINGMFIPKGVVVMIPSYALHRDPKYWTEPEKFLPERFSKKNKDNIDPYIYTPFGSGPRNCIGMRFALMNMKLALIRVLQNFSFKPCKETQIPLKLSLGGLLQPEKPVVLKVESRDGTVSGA
experimental.protocol: Inhibition of CYP3A4 in human liver microsomes at 10 uM preincubated for 5 mins followed by NADPH addition by LC-MS/MS analysis relative to control
Format: ADME, Microsome
property.measured: inhibition at 10 µM (%)

{"line.notation": "Cc1ccc([C@@H]2C[C@H](CN[C@H](C)c3cccc4ccccc34)Oc3ccccc32)cc1C(=O)O.Cl", "property.measured": "inhibition at 10 µM", "endpoint.result": 0}

---

assayed.system: UniProt P10635
Sequence (P10635 whole entry): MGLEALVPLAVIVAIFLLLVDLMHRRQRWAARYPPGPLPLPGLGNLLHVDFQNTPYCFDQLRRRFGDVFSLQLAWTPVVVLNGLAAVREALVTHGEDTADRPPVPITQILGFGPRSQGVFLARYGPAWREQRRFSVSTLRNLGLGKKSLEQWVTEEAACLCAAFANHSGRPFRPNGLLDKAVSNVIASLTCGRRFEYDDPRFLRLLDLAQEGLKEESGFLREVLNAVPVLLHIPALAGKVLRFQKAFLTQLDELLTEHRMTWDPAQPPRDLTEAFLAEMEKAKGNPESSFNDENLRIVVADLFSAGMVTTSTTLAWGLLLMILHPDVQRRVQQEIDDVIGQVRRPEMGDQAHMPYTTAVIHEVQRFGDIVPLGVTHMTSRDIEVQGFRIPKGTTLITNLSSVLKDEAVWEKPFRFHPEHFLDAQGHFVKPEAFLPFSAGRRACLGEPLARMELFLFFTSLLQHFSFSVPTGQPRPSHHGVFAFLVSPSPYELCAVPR
experimental.protocol: Inhibition of CYP2D6 in human liver microsomes at 1 uM preincubated for 5 mins followed by NADPH addition by LC-MS/MS analysis relative to control
Assay type: ADME, Microsome
Lab note: anything with inhibition at 1 µM at or over 60% counts as 1; the rest go in -1.

{"compound": "Cc1ccc([C@H]2C[C@@H](CN[C@H](C)c3cccc4ccccc34)Oc3ccccc32)cc1C(=O)O", "assayed.system": "UniProt P10635", "class": -1}
{"compound": "C[C@@H](NCC1CN(C)c2ccccc2O1)c1cccc2ccccc12 (stereo partly specified)", "assayed.system": "UniProt P10635", "class": 1}
{"compound": "C[C@@H](NCC1CN(c2ccccn2)c2ccccc2O1)c1cccc2ccccc12 (stereo partly specified)", "assayed.system": "UniProt P10635", "class": 1}
{"compound": "Cc1c(C(=O)O)cccc1[C@@H]1C[C@H](CN[C@H](C)c2cccc3ccccc23)Oc2ccccc21", "assayed.system": "UniProt P10635", "class": -1}
{"compound": "C[C@@H](NCC1CN(CC(F)(F)F)c2ccccc2O1)c1cccc2ccccc12 (stereo partly specified)", "assayed.system": "UniProt P10635", "class": 1}
{"compound": "Cc1ccc([C@@H]2C[C@@H](CN[C@H](C)c3cccc4ccccc34)Oc3ccccc32)cc1C(=O)O", "assayed.system": "UniProt P10635", "class": -1}
{"compound": "C[C@@H](NCC1CN(C(=O)c2ccccc2)c2ccccc2O1)c1cccc2ccccc12 (mixture of isomers; form 1)", "assayed.system": "UniProt P10635", "class": -1}
{"compound": "C[C@@H](NCC1CNc2ccccc2O1)c1cccc2ccccc12 (stereo partly specified)", "assayed.system": "UniProt P10635", "class": 1}
{"compound": "Cc1c(C(=O)O)cccc1N1CC(CN[C@H](C)c2cccc3ccccc23)Oc2ccccc21.Cl (mixture of isomers; form 1)", "assayed.system": "UniProt P10635", "class": -1}
{"compound": "Cc1ccc(N2CC(CN[C@H](C)c3cccc4ccccc34)Oc3ccccc32)cc1C(=O)O.Cl (stereo partly specified)", "assayed.system": "UniProt P10635", "class": -1}
{"compound": "C[C@@H](NCC1CN(c2cccc(C(=O)O)c2)c2ccccc2O1)c1cccc2ccccc12 (mixture of isomers; form 1)", "assayed.system": "UniProt P10635", "class": -1}
{"compound": "Cc1cc(C(=O)O)cc([C@@H]2C[C@H](CN[C@H](C)c3cccc4ccccc34)Oc3ccccc32)c1", "assayed.system": "UniProt P10635", "class": -1}
{"compound": "COc1ccc([C@@H]2C[C@H](CN[C@H](C)c3cccc4ccccc34)Oc3ccccc32)cc1C(=O)O", "assayed.system": "UniProt P10635", "class": -1}
{"compound": "C[C@@H](NCC1CN(c2ccc(C(=O)O)cc2)c2ccccc2O1)c1cccc2ccccc12 (stereo partly specified)", "assayed.system": "UniProt P10635", "class": 1}
{"compound": "C[C@@H](NC[C@H]1C[C@@H](c2cccc(C(=O)O)c2)c2ccccc2O1)c1cccc2ccccc12", "assayed.system": "UniProt P10635", "class": -1}
{"compound": "Cc1ccc(C(=O)O)cc1[C@@H]1C[C@H](CN[C@H](C)c2cccc3ccccc23)Oc2ccccc21", "assayed.system": "UniProt P10635", "class": -1}

---

assayed.system: UniProt P10635
experimental.protocol: Inhibition of CYP2D6 in human liver microsomes at 10 uM preincubated for 5 mins followed by NADPH addition by LC-MS/MS analysis relative to control
Format: ADME, Microsome
Outcome: T for inhibition at 10 µM of at least 40%; F for anything lower.

{"compound": "C[C@@H](NCC1CNc2ccccc2O1)c1cccc2ccccc12 (stereo not given in full)", "class": "T"}
{"compound": "C[C@@H](NCC1CN(C)c2ccccc2O1)c1cccc2ccccc12 (stereo not given in full)", "class": "T"}
{"compound": "C[C@@H](NC[C@H]1C[C@@H](c2ccc(F)c(C(=O)O)c2)c2ccccc2O1)c1cccc2ccccc12", "class": "F"}
{"compound": "COc1ccc([C@@H]2C[C@H](CN[C@H](C)c3cccc4ccccc34)Oc3ccccc32)cc1C(=O)O", "class": "F"}
{"compound": "Cc1ccc([C@H]2C[C@@H](CN[C@H](C)c3cccc4ccccc34)Oc3ccccc32)cc1C(=O)O", "class": "F"}
{"compound": "C[C@@H](NC[C@H]1C[C@H](c2cccc(C(=O)O)c2)c2ccccc2O1)c1cccc2ccccc12", "class": "F"}
{"compound": "Cc1c(C(=O)O)cccc1[C@@H]1C[C@H](CN[C@H](C)c2cccc3ccccc23)Oc2ccccc21", "class": "F"}
{"compound": "C[C@@H](NCC1CN(c2cccc(OCC(=O)O)c2)c2ccccc2O1)c1cccc2ccccc12 (stereo not given in full)", "class": "F"}
{"compound": "C[C@@H](NCC1CN(c2ccc(C(=O)O)cc2)c2ccccc2O1)c1cccc2ccccc12 (stereo not given in full)", "class": "T"}
